Cited source for all entries: ChEMBL document CHEMBL1961873

Biological target: Protein kinase C iota type (Homo sapiens)
Conditions: at 0.1 µM
Description: GSK_PKIS: PKC-iota mean inhibition at 0.1 uM [Nanosyn]
quantity: inhibition (%)
Answer in %, number only, no unit symbol.

# input Any idea what inhibition was measured for "COc1ccc(Nc2ncc(-c3ccccc3)o2)cc1OC" ?
# output -0.08

# input Continue with "FC(F)(F)CNc1nccc(-c2cnn3ncccc23)n1"
# output 1.84

# input Moving on to the next compound: CC1=C(C(=O)Nc2ccc3[nH]ncc3c2)C(c2ccc(F)cc2)N=C(c2ccc(C(F)(F)F)nc2)N1 (centres undefined)
# output 1

# input Cool, now "COc1c(C(N)=O)cc(-c2ccc(Cl)cc2)cc1-c1ccc(S(N)(=O)=O)cc1"
# output 1

# input And for "O=C(O[C@H]1CN[C@H](C#Cc2cc3ncnc(Nc4ccc5c(ccn5Cc5cc(F)ccc5F)c4)c3s2)C1)N1CCOCC1" ?
# output 2.82

# input // query: "CS(=O)(=O)CCNCc1ccc(-c2ccc3ncnc(Nc4ccc(OCc5ccccc5)cc4)c3c2)o1"
# output 1.61

# input And then "CCS(=O)(=O)c1ccc(OC)c(Nc2ncc(-c3cccc(C(C)=O)c3)o2)c1" , what is it?
# output 1.79

# input Next compound: "CN(C)CCNC(=O)Nc1ccc(N(C)c2ccnc(Nc3ccc(CS(C)(=O)=O)cc3)n2)cc1"
# output 1.77

# input What do you have for "Cc1c2ccc(N(C)c3ccnc(Nc4cccc(S(N)(=O)=O)c4)n3)cc2nn1C" ?
# output 1.66

====

Molecular target: RAC-gamma serine/threonine-protein kinase (Homo sapiens) (UniProt Q9Y243)
Sequence (Q9Y243 whole entry): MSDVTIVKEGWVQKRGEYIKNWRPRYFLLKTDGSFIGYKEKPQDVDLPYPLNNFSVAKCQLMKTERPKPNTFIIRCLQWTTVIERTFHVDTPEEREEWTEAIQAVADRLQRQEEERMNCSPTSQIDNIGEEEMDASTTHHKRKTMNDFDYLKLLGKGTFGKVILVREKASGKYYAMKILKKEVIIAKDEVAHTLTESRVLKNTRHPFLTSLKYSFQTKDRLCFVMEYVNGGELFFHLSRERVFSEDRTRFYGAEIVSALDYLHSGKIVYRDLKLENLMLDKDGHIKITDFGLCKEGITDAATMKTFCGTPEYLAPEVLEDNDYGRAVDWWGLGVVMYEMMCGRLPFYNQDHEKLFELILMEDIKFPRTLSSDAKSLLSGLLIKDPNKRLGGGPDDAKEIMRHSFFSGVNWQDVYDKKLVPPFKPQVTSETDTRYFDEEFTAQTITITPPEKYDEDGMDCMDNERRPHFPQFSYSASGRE
Conditions: at 1 µM
Description: GSK_PKIS: AKT3 mean inhibition at 1 uM [Nanosyn]
I'd appreciate it if you could supply inhibition values for the items below.
Kindly answer with a numeric value in %, unit omitted.

# input Bench note: what inhibition did CC1=C(C(=O)Nc2ccc3[nH]ncc3c2)C(c2ccc(F)cc2)N=C(c2ccc(C(F)(F)F)nc2)N1 (stereo not given) show?
# output 1.68

# input Note, next up: "CCCNc1cccc(-n2ncc3c(N/N=C/c4ccncc4)ncnc32)c1"
# output -1.08

# input Same question for "COc1ccc2ncn(-c3cc(O[C@H](C)c4ccccc4C(F)(F)F)c(C(N)=O)s3)c2c1" please.
# output 0.41

# input Repeat with CC1=C(C(=O)Nc2ccc3[nH]nc(C)c3c2)C(c2ccc(C(F)(F)F)cc2)CC(=O)N1 (stereo not given)
# output 2.53

# input "N#Cc1cccc(Nc2ncc(-c3ccccc3)o2)c1" , same question.
# output -0.1

# input Please do the same for "O=C(O[C@H]1CN[C@H](C#Cc2cc3ncnc(Nc4ccc5c(ccn5Cc5cc(F)ccc5F)c4)c3s2)C1)N1CCOCC1" as well.
# output 0.51

# input Here is the next molecule: "CCS(=O)(=O)c1ccc(OC)c(Nc2ncc(-c3cccc(C(C)=O)c3)o2)c1"
# output 1.05

# input Next up: "CC1(C)CC(n2cnc(-c3ccc(F)cc3)c2-c2ccnc(N)n2)CC(C)(C)N1"
# output -0.35

# input Next entry: "COc1c(C(N)=O)cc(-c2ccc(Cl)cc2)cc1-c1ccc(S(N)(=O)=O)cc1"
# output 3.15

# input Now this one: "OCCCNc1nccc(-c2c(-c3ccc(F)cc3)nn3cc(C(F)(F)F)ccc23)n1"
# output 0

# input Okay, and "CS(=O)(=O)Nc1ccc(-c2ccc3c(NC(=O)C4CC4)n[nH]c3c2)cc1" ?
# output 0.93

# input Could you do the same for "Cc1cc(O)cc(C)c1/C=C/c1cncc(C(=O)OC(C)(C)C)c1" , please?
# output 1.34

# input Also check "CS(=O)(=O)Nc1ccc(-c2cc(-c3ccccc3)cc(C(N)=O)c2N)cc1"
# output 2.53

# input Next molecule up: "CN(c1ccc(NC(=O)NCCN2CCOCC2)cc1)c1ccnc(Nc2ccc(CS(C)(=O)=O)cc2)n1"
# output 0.19

# input Okay, and "CCS(=O)(=O)c1ccc(OC)c(Nc2ncc(-c3cccc(F)c3)o2)c1" ?
# output 8.05

# input Queued: "COC(=O)Nc1nc2cc(Oc3ccc(NC(=O)Nc4ccccc4)cc3)ccc2[nH]1"
# output 0.78

# input How about "CNC(=O)c1cncc(/C=C/c2ccccc2C)c1" ?
# output 1.52

# input Another molecule to look at: "COc1cccc(-n2ncc3c(N/N=C/c4ccc(C(=O)NCCN(C)C)cc4)ncnc32)c1"
# output -1.17

# input Continue with "CN1CCC(n2cnc(-c3ccc(F)cc3)c2-c2ccnc(NCCO)n2)CC1"
# output 2.14

# input Also need "CNC(=O)c1ncccc1Nc1nc(Nc2cc3c(cc2OC)CCCN3C(=O)CN(C)C)nc2[nH]ccc12" , thanks.
# output 1.71
